test: qHTS of TDP-43 Inhibitors; details: TDP-43 expressing yeast growth rescue, BacTiter-Glo, 24 h; series mostly up to 46.1 µM; also: nearly all actives have a fitted effect of over 50% in size
The whole screen tested about 410,000 compounds, of which about 7,200 (1.8%) were called active. Roughly 7% stayed inconclusive and do not appear here. Calls follow the shape of the dose curve; as a rule, active = well fitted activation curve with a large enough effect; inconclusive = small, poorly fitted or top-dose-only effect, or another doubt; inactive = no such curve, though single readings can be large or run the other way. The entries come from a sample that favours actives as a whole.
Valid outcomes are listed here; reply with one: active, inactive

Task item: Hi, sorry to bother you, what did the test record for CC1CN(C(=O)N2CCC(C(=O)NCc3ccco3)CC2)c2cc(Cl)ccc2O1 (stereo not given) ?
Reply: inactive

Task item: Repeat for the following molecule: C=CCSc1nnc(Cn2c(=O)sc3ccccc32)n1C
Reply: inactive

Task item: Input Cc1cccc(N2CCN(C(=O)c3ccc(Nc4nc5ccccc5n5nnnc45)cc3)CC2)c1C
Reply: inactive

Task item: Again, but for COc1ccc(Cn2c(=O)sc3ccccc32)cc1OC
Reply: active

Task item: Proceed to COC(=O)c1ccc(Sc2ccc(F)cc2)c(N)c1
Reply: inactive

Task item: Continue with CC(=O)Nc1cc(C(=O)NCc2ccc(F)cc2Cl)ccc1Sc1ccc(Cl)cc1
Reply: active

Task item: Check COc1ccc(CN2CN(C(C)C)CSC2=S)cc1 too.
Reply: inactive

Task item: What do we get for O=C(NCc1ccc2c(c1)CCN2C(=O)c1ccccc1)c1ccccc1 ?
Reply: inactive

Task item: Here is the next molecule: COc1ccc(CC(=O)N2CC(=O)Nc3ccc(Br)cc3C2c2ccc(F)cc2)cc1OC (stereo not given)
Reply: inactive

Task item: Follow-up entry: O=C(c1ccc(Cl)nc1)N1CCN(S(=O)(=O)c2ccc3c(c2)OCCO3)CC1
Reply: inactive

====

test: qHTS of TDP-43 Inhibitors; conditions: TDP-43 expressing yeast growth rescue, BacTiter-Glo, 24 h; series mostly up to 46.1 µM; also: nearly all actives have a fitted effect of over 50% in size
The whole screen tested about 410,000 compounds, of which about 7,200 (1.8%) were called active. Inconclusive results (about 7%) are left out. Calls come from the whole dose curve; as a rule, active = well fitted activation curve with a large enough effect; inconclusive = small, poorly fitted or top-dose-only effect, or another doubt; inactive = no such curve, though single readings can be large or run the other way. Only a selection was taken, and actives are over-represented in it overall.
Choose the fitting class; nothing outside active, inactive is accepted.

Task item: Kindly provide the recorded test outcome for the following compound: COC(=O)c1ccc(NC(=O)C23CC4CC(C2)CC(n2cnc(Cl)n2)(C4)C3)cc1
Reply: active

Task item: Again, but for COc1cc(OC)c(N(C)C(=O)c2cc3c(=O)oc4ccccc4c3s2)cc1Cl
Reply: inactive

Task item: Follow-up entry: COc1ccc(-c2onc(C)c2C)cc1S(=O)(=O)NCc1cccs1
Reply: inactive

Task item: Same question, CCn1nnnc1SCC(=O)c1ccc(C)cc1C this time
Reply: inactive

Task item: Could you do the same for COc1ccc(C)cc1S(=O)(=O)NCCc1ccccc1 , please?
Reply: inactive

Task item: Same for CC1(c2nnc(-c3ccncc3)o2)CC(c2cccnc2)=NO1 (centres undefined)
Reply: inactive

Task item: Try this compound too: O=C(/C=C/Nc1ccc(S(=O)(=O)Nc2cnc3ccccc3n2)cc1)c1cccnc1
Reply: inactive

Task item: Next up: Cc1ccccc1-n1nnnc1SCCCC(=O)c1ccc(F)cc1
Reply: active

Task item: What about O=C(Nc1c(C(=O)N2CCN(c3ccc(F)cc3)CC2)oc2ccccc12)c1ccco1 ?
Reply: inactive

Task item: Then what about the compound Cc1cc2nc(C(F)(F)F)cc(-c3cccs3)n2n1 ?
Reply: inactive

Task item: Can you handle Cc1ccc(CSc2nc3cccnc3n2Cc2ccc(C(=O)NC3CC3)cc2)cc1 next?
Reply: inactive

Task item: Queued: CC(N=Cc1nc(-c2ccccc2)oc1O)c1ccccc1 (centres undefined)
Reply: active

Task item: Same question, Cc1nc2cc(C(F)(F)F)ccc2n1CCNc1nc(-c2cc(Cl)c(N)c(Cl)c2)cs1 this time
Reply: active

Task item: What would you report for O=C(NC1CC(=O)N(c2ccc(Cl)cc2)C1)C1CCCC1 (centres undefined) ?
Reply: inactive

Task item: Repeat for the following compound: CCC(C(=O)Nc1cccc(-c2nc3cccnc3s2)c1C)c1ccccc1 (centres undefined)
Reply: inactive

Task item: // next record COc1ccc(-c2onc(C)c2C)cc1S(=O)(=O)NCCc1ccccc1
Reply: active

Task item: And what about the compound CCN(c1ccc(Cl)cc1)S(=O)(=O)c1nnc(NC(=O)c2ccco2)s1 ?
Reply: inactive

Task item: Also CC(C)(C)Nc1c(-c2cccs2)nc2ccccn12 ?
Reply: inactive

Task item: Query C=CCn1c(-c2ccccc2OCC)n[nH]c1=S next
Reply: inactive

====

assay: qHTS of TDP-43 Inhibitors; details: TDP-43 expressing yeast growth rescue, BacTiter-Glo, 24 h; series mostly up to 46.1 µM; also: nearly all actives have a fitted effect of over 50% in size
Hit rate of the full screen: of about 410,000 compounds, about 7,200 (1.8%) were called active. Not shown: some 7% with an inconclusive outcome. The call rests on the fitted dose curve; in most records, active means well fitted activation curve with a large enough effect; inconclusive means small, poorly fitted or top-dose-only effect, or another doubt; inactive means no such curve, though single readings can be large or run the other way. Shown is part of a subset that was picked to be rich in actives.
Please state which outcome applies, choosing from active, inactive

Task item: Name the outcome recorded for COc1ccc(C(=O)NC2(C(F)(F)F)NC(=O)N(CCCc3ccccc3)C2=O)c(OC)c1OC (stereo not drawn) in the assay.
Reply: active

Task item: Check COc1ccc(OC)c(-n2nnc3c(sc4nc(C)c(Br)c(C)c43)c2=O)c1 too.
Reply: inactive

Task item: Subsequent entry: CCOc1ccccc1C(=O)NC1(C(F)(F)F)NC(=O)N(CCc2ccc(OC)c(OC)c2)C1=O (stereo not drawn)
Reply: inactive

Task item: Moving on to the next molecule: NC(=O)Nc1ccc(C(=O)OCC(=O)NC2CCCc3ccccc32)cc1 (stereo not drawn)
Reply: inactive

Task item: // repeat for Cc1cccc(Cn2c(=O)n(CCC(=O)NCCc3ccc(Cl)cc3)c(=O)c3sccc32)c1 and report
Reply: inactive

Task item: For COc1ccccc1NC(=O)c1cc(S(=O)(=O)NCCc2ccccc2)ccc1F then?
Reply: inactive

Task item: Moving on to CCCOc1ccccc1C1CC(=O)Nc2cc3c(cc21)OCO3 (stereo not drawn)
Reply: active

Task item: Another molecule: O=C(CCCn1c(=O)c2cccn2c2cccnc21)NCc1ccc(F)cc1
Reply: inactive

====

test: qHTS of TDP-43 Inhibitors; conditions: TDP-43 expressing yeast growth rescue, BacTiter-Glo, 24 h; series mostly up to 46.1 µM; also: nearly all actives have a fitted effect of over 50% in size
Out of some 410,000 compounds screened, about 7,200 (1.8%) were called active. Not shown: some 7% with an inconclusive outcome. Calls come from the whole dose curve; as a rule, active = well fitted activation curve with a large enough effect; inconclusive = small, poorly fitted or top-dose-only effect, or another doubt; inactive = no such curve, though single readings can be large or run the other way. Only a selection was taken, and actives are over-represented in it overall.
Answer with one of the outcomes Y = active, N = inactive

Task item: Look up the recorded call for CCC(=O)N1CCc2cc(Br)cc(S(=O)(=O)NCc3ccc(Cl)cc3)c21 in this test.
Reply: N

Task item: For Cc1ccc(NC(=O)CSc2nc3c(c(=O)[nH]2)CN(Cc2ccc4c(c2)OCO4)CC3)cc1C then?
Reply: N

Task item: Entry to check: CCOC(=O)CSc1nc2ccc(C)cc2n2cnnc12
Reply: N

Task item: What would you report for Cc1ccccc1NC(=O)CSC1=NCCN1 ?
Reply: N

Task item: Follow-up item: O=C(c1ccccc1)c1ccc2nc(N3CCCCC3)c3nncn3c2c1
Reply: Y

Task item: Continue with CCC(=O)N1CCc2cc(CNS(=O)(=O)c3ccc(Br)s3)ccc21
Reply: Y

Task item: Now the same for COCCN(Cc1ccco1)C(=O)Cn1ncc2c([nH]c3ccccc32)c1=O
Reply: N

Task item: Can you handle CCOC(=O)c1ccc(NC(=O)c2ncn(-c3ccccc3)n2)cc1 next?
Reply: N

Task item: Likewise for CCN(CC)c1ccc(NC(=O)CN2C(=O)c3cccnc3Oc3ccc(Cl)cc32)c(C)c1 ?
Reply: N

Task item: Moving on to the next molecule: Cc1ccc(CN2CCC(CNC(=O)c3cnn(-c4ccccc4Cl)c3C3CCN(C(=O)OC(C)(C)C)CC3)CC2)cc1
Reply: N

Task item: Similarly, COc1ccc(NC(=O)c2ccc3nc(CCc4ccccc4)oc3c2)c(OC)c1 ?
Reply: N

Task item: Cool, now COc1ccc2c(CNCCc3ccccc3C)c(C(=O)O)n(Cc3ccccc3C)c2c1
Reply: N

Task item: Here is the next molecule: CCc1nn(CC(=O)Nc2cc(C)cc(C)c2)c(=O)c2cc3sccc3n12
Reply: N

Task item: Cc1cc(C)nc(-n2ncc3c2CC(c2ccc(C(C)C)cc2)CC3=O)n1 (stereo unspecified) ?
Reply: Y

Task item: How about this molecule: Cc1nc2nc3c(cn2n1)C(=O)CC(c1ccccc1)C3 (stereo unspecified)
Reply: N

Task item: # iterate: NC(=O)CSc1c[nH]c2ccccc12
Reply: N

Task item: Try the molecule Cc1ccc2nc(COc3cccc(NC(=O)c4cccc(Cl)c4)c3)cc(=O)n2c1
Reply: N

Task item: Another molecule to look at: COc1ccccc1N1CCN(S(=O)(=O)CCNC(=O)COc2ccc(F)cc2)CC1
Reply: N

Task item: Similarly, O=C(COC(=O)/C=C/c1ccc2c(c1)OCO2)NC1CCS(=O)(=O)C1 (stereo unspecified) ?
Reply: N

Task item: Cc1ccc(-c2nn(CCC(=O)Nc3ccc(Cl)c(Cl)c3)c(=O)c3ccccc23)cc1 , same question.
Reply: N

Task item: Another molecule to look at: COc1ccc(CNC(=O)CCc2c(C)nn(-c3ccc(N4CCCC4)nn3)c2C)cc1
Reply: N
